# target_or_test_system: [3H]-norepinephrine reuptake (Rattus norvegicus, UniProt Q63380)
# Construct: the hypothalamus was rapidly removed and a crude synaptosomal fraction was prepared; from tissue; host or cells: rat hypothalamus, crude synaptosomal fraction
# Sequence (Q63380 1-617): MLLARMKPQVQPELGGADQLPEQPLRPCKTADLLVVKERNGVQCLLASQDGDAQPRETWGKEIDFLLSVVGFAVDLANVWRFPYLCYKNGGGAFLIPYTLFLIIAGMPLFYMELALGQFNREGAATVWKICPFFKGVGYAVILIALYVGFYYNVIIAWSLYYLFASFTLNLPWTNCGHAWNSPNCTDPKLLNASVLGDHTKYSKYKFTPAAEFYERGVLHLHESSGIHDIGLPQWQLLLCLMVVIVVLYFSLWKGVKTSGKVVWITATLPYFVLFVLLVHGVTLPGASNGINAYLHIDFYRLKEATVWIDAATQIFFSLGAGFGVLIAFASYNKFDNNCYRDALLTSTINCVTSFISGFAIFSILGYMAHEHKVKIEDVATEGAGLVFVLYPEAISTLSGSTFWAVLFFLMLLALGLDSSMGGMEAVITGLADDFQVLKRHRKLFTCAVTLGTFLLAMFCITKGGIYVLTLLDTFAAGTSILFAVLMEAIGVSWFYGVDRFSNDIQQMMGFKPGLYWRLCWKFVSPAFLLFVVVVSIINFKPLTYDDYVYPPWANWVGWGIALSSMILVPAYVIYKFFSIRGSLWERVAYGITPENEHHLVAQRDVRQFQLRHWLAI
# test_details: In vitro functional inhibition of [3H]-norepinephrine reuptake, hypothalamus synaptosomes
# Assay type: biochemical
# particulars: read-out: Noradrenaline inhibition pIC50 (converted)
recorded_endpoint: IC50 (µM)

Please report the recorded IC50 for CN(C)C[C@@H](c1ccc(O)cc1)C1(O)CCCCC1 [(R)—O-desmethyl-venlafaxine, O-desmethyl-R-Venlafaxine, reference compound] .
0.398

I = CN(C)C[C@H](c1ccc(O)cc1)C1(O)CCCCC1 [(S)—O-desmethyl-venlafaxine, O-desmethyl-S-Venlafaxine, reference compound]
II = COc1ccc([C@H](C[N+](C)(C)[O-])C2(O)CCCCC2)cc1 [(R)-venlafaxine-N-oxide, R-Venlafaxine N-oxide]
Compare I and II and name the one whose reported IC50 is smaller. Lab note: record the label of whichever item you select.
I

* * *

# target_or_test_system: serotonin reuptake sites (Homo sapiens, UniProt P31645)
# Sequence (P31645 whole entry): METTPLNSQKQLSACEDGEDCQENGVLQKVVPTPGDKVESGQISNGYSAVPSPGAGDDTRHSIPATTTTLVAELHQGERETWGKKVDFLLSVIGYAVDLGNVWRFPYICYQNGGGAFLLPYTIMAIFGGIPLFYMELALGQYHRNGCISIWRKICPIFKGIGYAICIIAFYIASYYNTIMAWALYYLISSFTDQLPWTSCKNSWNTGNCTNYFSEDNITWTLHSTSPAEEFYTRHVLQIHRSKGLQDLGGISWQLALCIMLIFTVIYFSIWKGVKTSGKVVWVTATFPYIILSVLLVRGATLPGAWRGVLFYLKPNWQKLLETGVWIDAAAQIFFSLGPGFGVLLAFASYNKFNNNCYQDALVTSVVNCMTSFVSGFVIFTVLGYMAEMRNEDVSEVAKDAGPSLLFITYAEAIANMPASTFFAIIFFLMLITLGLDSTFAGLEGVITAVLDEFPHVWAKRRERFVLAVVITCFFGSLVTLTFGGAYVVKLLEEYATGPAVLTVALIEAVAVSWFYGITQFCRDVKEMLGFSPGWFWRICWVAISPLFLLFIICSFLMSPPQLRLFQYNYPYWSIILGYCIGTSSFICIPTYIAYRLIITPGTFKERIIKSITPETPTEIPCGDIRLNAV
# test_details: In vitro affinity for serotonin reuptake sites
# Format: binding
# particulars: read-out: Serotonine binding pKi (converted)
recorded_endpoint: Ki (µM)

What Ki appears in the records for this compound with serotonin reuptake sites (Homo sapiens, UniProt P31645)? C[N+](C)([O-])C[C@H](c1ccc(O)cc1)C1(O)CCCCC1 [(S)—O-desmethyl-venlafaxine-N-oxide, O-desmethyl-S-venlafaxine N-oxide]
12.6

1 = C[N+](C)([O-])C[C@@H](c1ccc(O)cc1)C1(O)CCCCC1 [(R)—O-desmethyl-venlafaxine-N-oxide, O-Desmethyl-R-venlafaxine N-oxide]
2 = COc1ccc([C@@H](C[N+](C)(C)[O-])C2(O)CCCCC2)cc1 [(S)-venlafaxine-N-oxide, S-Venlafaxine N-oxide]
Of the two listed items, which has the higher Ki? First: 1 Second: 2 Lab note: record the label of whichever item you select.
1
(1: 10 µM, 2: 6.31 µM)

* * *

# test_details: Plasma and brain concentrations and plasma pharmacokinetics after i.v. or p.o. administration to mice (LC-MS/MS)
# particulars: male, NMRI, mouse, plasma, iv, 1 mg/kg
recorded_endpoint: AUC(0-inf) (ng·h/mL)
Please respond with the number in ng·h/mL and leave the unit unwritten.

Please report the recorded AUC(0-inf) for COc1ccc(C(CN(C)C)C2(O)CCCCC2)cc1 (racemic) [Venlafaxine, reference compound] .
195

* * *

# test_details: Plasma and brain concentrations and plasma pharmacokinetics after i.v. or p.o. administration to mice (LC-MS/MS)
# particulars: male, NMRI, mouse, plasma, iv, 1 mg/kg
recorded_endpoint: AUC (ng·h/mL)
Please respond with the number in ng·h/mL and leave the unit unwritten.

Please report the recorded AUC for COc1ccc(C(CN(C)C)C2(O)CCCCC2)cc1 (racemic) [Venlafaxine, reference compound] .
194

* * *

# test_details: Plasma and brain concentrations and plasma pharmacokinetics after i.v. or p.o. administration to mice (LC-MS/MS)
# particulars: male, NMRI, mouse, plasma, iv, 1 mg/kg
recorded_endpoint: clearance (mL/min/kg)
Please respond with the number in mL/min/kg and leave the unit unwritten.

Please report the recorded clearance for COc1ccc(C(CN(C)C)C2(O)CCCCC2)cc1 (racemic) [Venlafaxine, reference compound] .
85.6

* * *

# test_details: in vivo
# particulars: male, NMRI, mouse, in vivo, po, 10 mg/kg
recorded_endpoint: half-life (min)
Please respond with the number in min and leave the unit unwritten.

Please report the recorded half-life for COc1ccc(C(CN(C)C)C2(O)CCCCC2)cc1 (racemic) [Venlafaxine, reference compound] .
54
